Hey, just so you know, these numbers are from ChEMBL document CHEMBL2177076.

Assay: Clearance in Sprague-Dawley rat at 1 mg/kg, iv
Assay type: ADME, organism-based
Parameters: dose 1 mg/kg, route intravenous
Conditions: in vivo
measuredQuantity: clearance (mL/min/kg)
Numbers only, in mL/min/kg.

Task: // query clearance value for entry N#Cc1cc(Cl)cc(Oc2c(Br)ccc(CNC(=O)c3[nH]c(N)nc3Cl)c2F)c1
Output: 28.6

---

Test system: Mus musculus
Assay: AUC (0 to infinity) in mouse at 5 mg/kg, po
Assay type: ADME, organism-based, Plasma
Set-up: time infinity, dose 5 mg/kg, route oral
Conditions: in vivo
measuredQuantity: AUC (ng·h/mL)
Answers are plain numbers, in ng·h/mL.

Task: // query AUC value for entry N#Cc1cc(Cl)cc(Oc2c(Br)ccc(CNC(=O)c3[nH]c(N)nc3Cl)c2F)c1
Output: 9600
